Data origin, for the record: ChEMBL document CHEMBL4689842

Entries annotated with measured Population Mitochondria Different-Phenotype (%)
- System: U2OS
- assay: Multiplex assay against U2OS
- Assay type: toxicity, cell-based
- assay setup: human, 24 h, 1 µM, compound concentration 1 uM, replicate 1
readout name: Population Mitochondria Different-Phenotype (%)

CNc1nc(NCc2ccc(NS(C)(=O)=O)cc2Cl)cc(-c2ccccn2)n1
17
COc1cccc([C@@H](C)NCCCc2ccccc2Cl)c1.Cl [TECALCET HYDROCHLORIDE]
30
Cc1c(-c2ccc(O)cc2)n(Cc2ccc(OCCN3CCCCCC3)cc2)c2ccc(O)cc12
9
COc1ncc(-c2ccc3nccc(-c4ccnnc4)c3c2)cc1NS(=O)(=O)c1ccc(F)cc1F
4
OC1(c2ccc(Cl)cc2)CCN(Cc2c[nH]c3ccccc23)CC1
6
CN1CCN(c2ccc(OC(F)(F)F)c(Nc3ncc4c(n3)-c3c(c(C(N)=O)nn3CCO)CC4)c2)CC1
17
CN(C)CC#Cc1ccc(OCCCc2sc(N3CCc4cccc(C(=O)Nc5nc6ccccc6s5)c4C3)nc2C(=O)O)c(F)c1
15
CC[C@H](C)C(=O)O[C@H]1C[C@@H](C)C=C2C=C[C@H](C)[C@H](CC[C@@H]3C[C@@H](O)CC(=O)O3)[C@H]21
8

* * *

- Test system: HEK-293T
- assay: Multiplex assay against HEK293T
- Assay type: toxicity, cell-based
- assay setup: human, 12 h, 1 µM, compound concentration 1 uM, replicate 1
Use Y when the recorded Population Pyknosed Nuclei (%) is no lower than 50%; use N when it is lower.

Cc1csc2c(N[C@@H](C)CN3CCN(S(=O)(=O)c4ccc(Cl)c(Cl)c4)CC3)ncnc12
Y
CN1CCC[C@@H]1CCO[C@](C)(c1ccccc1)c1ccc(Cl)cc1.O=C(O)/C=C/C(=O)O [CLEMASTINE FUMARATE]
Y
C=CC(=O)Nc1cccc(C(=O)Nc2ccc(Nc3cc(-c4[nH]c(SC)nc4C)ccn3)cc2)c1
Y
Cc1c(-c2ccc(O)cc2)n(Cc2ccc(OCCN3CCCCCC3)cc2)c2ccc(O)cc12
Y
Cc1cc(C)cc(-c2cnc3cc(Cl)c(-c4cccc(O)c4)cc3c2OCCCN)c1
N
COc1cc(-n2cnc3cc(-c4ccc(Cl)cc4)sc3c2=O)ccc1OCCN1CCCC1
Y
Cn1cc(-c2[nH]c3cc(NC(=O)[C@H](N)C4CCCCC4)cc4c3c2C=NNC4=O)cn1
Y
CC(C)NCC(O)COc1ccc(CCOCC2CC2)cc1.Cl (stereo unspecified) [BETAXOLOL HYDROCHLORIDE]
N
CN(C)C(=O)/C(C#N)=C/c1ccc(-c2nc3cnc4[nH]ccc4c3n2C2CCCCC2)o1
N
Cc1nc(Nc2n[nH]c3c2CN(C(=O)N[C@H](CN(C)C)c2ccccc2)C3(C)C)c2sccc2n1
N
C=CC(=O)Nc1cc2c(Nc3ccc(F)c(Cl)c3)ncnc2cc1OCCCN1CCOCC1.Cl.Cl [CANERTINIB DIHYDROCHLORIDE]
N
C[C@@]1(C(=O)Nc2ccc(F)nc2)CCCN1c1nc(Nc2cc(C3CC3)n[nH]2)c2cccn2n1
N
Cc1nc(-c2ccc(-c3ccc(C(=O)N4CCc5cc6c(cc54)C4(CCN(C)CC4)CO6)cc3)c(C)c2)no1
N

* * *

- Tested on: HEK-293T
- assay: Multiplex assay against HEK293T
- Format: toxicity, cell-based
- assay setup: human, 48 h, 1 µM, compound concentration 1 uM, replicate 1
readout name: Population Fragmented Nuclei (%)

COc1cc(-n2cnc3cc(-c4ccc(Cl)cc4)sc3c2=O)ccc1OCCN1CCCC1
13
COc1ncc(-c2ccc3nccc(-c4ccnnc4)c3c2)cc1NS(=O)(=O)c1ccc(F)cc1F [OMIPALISIB]
30
O=C1NCN(c2ccccc2)C12CCN(CCCOc1ccc(F)cc1)CC2 [SPIRAMIDE]
10
C=CC(=O)Nc1ccc2ncnc(Nc3ccc(OCc4cccc(F)c4)c(Cl)c3)c2c1.Cc1ccc(S(=O)(=O)O)cc1
15
